Source of measurements: ChEMBL document CHEMBL2157957

Test: Half life in CD1 mouse liver microsomes at 0.5 uM preincubated for 10 mins before NADPH and UDPGA challenge
Format: ADME, Microsome
Measurement label: half-life at 0.5 µM

// below: answered compounds
# Molecule, Measurement label, Result
data = [
    ("COc1cc(C2CCN(C[C@@H](C)O)CC2)ccc1Nc1ncc2ccc(-c3ccccc3OC)n2n1", "half-life at 0.5 µM", "> 40 min"),
    ("COc1cc(C2CCN(CCO)CC2)ccc1Nc1ncc2ccc(-c3ccccc3N(C)S(C)(=O)=O)n2n1", "half-life at 0.5 µM", "> 40 min"),
]

Which half-life at 0.5 µM value is on record for COc1cc(C2CCN(CC(N)=O)CC2)ccc1Nc1ncc2c(C)cc(-c3ccccc3N(C)S(C)(=O)=O)n2n1 ?
> 40 min

Try this compound next: COc1cc(C2CCN(CC(N)=O)CC2)ccc1Nc1ncc2ccc(-c3ccccc3N(C)S(C)(=O)=O)n2n1
29 min

Same read-out for COc1cc(C2CCNCC2)ccc1Nc1ncc2ccc(-c3ccccc3N(C)S(C)(=O)=O)n2n1 ?
> 40 min

Same lookup for COc1cc(C2CCN(C[C@@H](C)O)CC2)ccc1Nc1ncc2ccc(-c3ccccc3N(C)S(C)(=O)=O)n2n1 , please.
> 40 min

Would you kindly repeat that for COc1cc(C2CCN(CC(N)=O)CC2)ccc1Nc1ncc2c(Cl)cc(-c3ccccc3N(C)S(C)(=O)=O)n2n1 ?
> 40 min

Can you check COc1cc(C2CCN(CC(N)=O)CC2)ccc1Nc1ncc2c(O)cc(-c3ccccc3N(C)S(C)(=O)=O)n2n1 next?
< 5 min

Please answer likewise for COc1cc(C2CCN(CC(N)=O)CC2)ccc1Nc1ncc2ccc(-c3ccccc3OC)n2n1
> 40 min
